# assayOverview: NIH3T3 cell viability loss – ATP luminescence, mouse fibroblasts, counter-screen, dose response (AID 2010);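 also: cells exposed to compound for about 90 hours before reading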
# Format: functional, cell-based
Activity calls are given as the source filed them.
propertyName: EC50

compound=N#C/C(=C\c1c(Cl)cccc1Cl)c1nn(-c2ccccc2)c(-n2cccc2)c1C#N propertyname=EC50 readoutvalue="> 60 µM (not active)"
compound=Cc1ccc2sc(N(CCCN(C)C)C(=O)CCS(=O)(=O)c3ccccc3)nc2c1C propertyname=EC50 readoutvalue="4.17 µM (active)"
compound=CN(c1ccccc1)S(=O)(=O)c1ccc(Cl)c(C(=O)Nc2ccc(-c3nc4ccccc4[nH]3)cc2)c1 propertyname=EC50 readoutvalue="> 30 µM (not active)"
compound=COc1ccc2c(C)cc(SCC(=O)c3ccc4c(c3)OCO4)nc2c1 propertyname=EC50 readoutvalue="> 60 µM (not active)"
compound=Cn1nc([N+](=O)[O-])nc1Sc1cccc2cccnc12 propertyname=EC50 readoutvalue="> 60 µM (not active)"
compound=O=C(NC(=S)Nc1ccccc1C(=O)O)c1ccc(-c2ccc(Br)cc2)o1 propertyname=EC50 readoutvalue="> 60 µM (not active)"
compound="O=S(=O)(N1CCCCC1)N1CCN(CC(O)COc2ccc3cc(Br)ccc3c2)CC1 (stereo not given)" propertyname=EC50 readoutvalue="> 60 µM (not active)"
compound=O=C(CCNS(=O)(=O)c1ccc(Br)s1)Nc1ccc(Cl)cc1 propertyname=EC50 readoutvalue="> 60 µM (inconclusive)"
compound=O=C(CCl)Nc1ccc(-c2ccccc2)cc1 propertyname=EC50 readoutvalue="< 6 µM (inconclusive)"
compound=C[n+]1ccc(/C=C/c2ccccc2O)c2ccccc21 propertyname=EC50 readoutvalue="> 60 µM (not active)"

----------
# Lookup of reported IC50 keyed by entry
# target: Polyadenylate-binding protein 1 (Homo sapiens, UniProt P11940)
# Sequence (P11940 whole entry): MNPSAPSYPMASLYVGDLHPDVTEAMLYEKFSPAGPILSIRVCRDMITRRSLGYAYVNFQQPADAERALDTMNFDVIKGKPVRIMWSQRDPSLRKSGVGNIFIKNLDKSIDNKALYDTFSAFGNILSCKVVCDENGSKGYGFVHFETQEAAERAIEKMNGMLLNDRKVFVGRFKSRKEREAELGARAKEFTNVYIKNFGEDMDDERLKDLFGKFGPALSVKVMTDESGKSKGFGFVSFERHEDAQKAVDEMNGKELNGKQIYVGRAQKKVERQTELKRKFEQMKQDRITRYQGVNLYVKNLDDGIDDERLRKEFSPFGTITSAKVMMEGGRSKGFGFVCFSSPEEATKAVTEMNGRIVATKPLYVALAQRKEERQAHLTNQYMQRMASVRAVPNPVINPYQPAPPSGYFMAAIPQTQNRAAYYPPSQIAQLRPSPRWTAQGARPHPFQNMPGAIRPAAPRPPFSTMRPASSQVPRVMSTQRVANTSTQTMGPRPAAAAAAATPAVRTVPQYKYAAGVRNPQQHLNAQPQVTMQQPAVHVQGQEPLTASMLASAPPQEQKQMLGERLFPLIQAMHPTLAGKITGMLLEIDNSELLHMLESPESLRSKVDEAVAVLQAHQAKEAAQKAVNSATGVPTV
# assayOverview: blockers of PABP interaction with poly(A) – biochemical, fluorescence polarization, […] (AID 2014)
Calls of active or inactive are those of the source.
propertyName: IC50

molecule="CC1=CC(C)C(CN(CCC[N+](C)(C)C)C(=O)Nc2ccccc2)C(C)C1 (centres undefined)" propertyname=IC50 readoutvalue="4.08 µM (active)"
molecule="COC(=O)CCCCCCCCC(O)C[N+]1(C)CCOCC1 (centres undefined)" propertyname=IC50 readoutvalue="2.48 µM (active)"
molecule="CCn1c(SCC(=O)NCc2ccccc2)nnc1C(CO)NC(=O)c1ccccc1 (centres undefined)" propertyname=IC50 readoutvalue="6.06 µM (active)"
molecule=CC[N+](C)(CC)CCC/C(=N/O)C(O)(c1ccccc1)c1ccccc1 propertyname=IC50 readoutvalue="5.57 µM (active)"

----------
# Lookup of reported AC50 keyed by entry
# target: Paired box protein Pax-8 (Homo sapiens, UniProt Q06710)
# Sequence (Q06710 whole entry): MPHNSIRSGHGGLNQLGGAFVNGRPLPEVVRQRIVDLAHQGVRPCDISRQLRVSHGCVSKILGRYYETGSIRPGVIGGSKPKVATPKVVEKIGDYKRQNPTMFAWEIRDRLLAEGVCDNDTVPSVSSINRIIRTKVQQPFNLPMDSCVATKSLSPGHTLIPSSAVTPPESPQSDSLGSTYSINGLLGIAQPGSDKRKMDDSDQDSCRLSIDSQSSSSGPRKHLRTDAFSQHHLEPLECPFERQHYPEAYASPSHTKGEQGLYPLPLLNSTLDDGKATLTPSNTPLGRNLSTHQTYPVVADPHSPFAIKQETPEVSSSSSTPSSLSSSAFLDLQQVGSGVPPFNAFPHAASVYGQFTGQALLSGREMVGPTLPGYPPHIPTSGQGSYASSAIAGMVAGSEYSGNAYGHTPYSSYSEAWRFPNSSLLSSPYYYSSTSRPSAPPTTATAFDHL
# assayOverview: PAX8 transcriptional activity inhibition in RMG-I – RMG-I cells, luciferase, cherry-pick, dose response (AID 687027);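 also: luciferase reporter driven by Pax8 target thyroperoxidase promoter measured by SteadyGlo luminescence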
# Assay type: functional, cell-based
Active and inactive are the calls of the source.
propertyName: AC50

smilesrepresentation=COc1cc(/C=N/NS(=O)(=O)c2ccc(C)cc2)ccc1OCc1ccc(C(=O)O)cc1 propertyname=AC50 readoutvalue="23.9 µM (active)"
smilesrepresentation=N#Cc1cccc(-c2ccc([C@@H]3[C@@H]4CN(C(=O)C5CC5)C[C@H]3N4)cc2)c1 propertyname=AC50 readoutvalue="1.25 µM (active)"
smilesrepresentation=C[C@@H]1CN([C@H](C)CO)C(=O)Cc2cc(NC(=O)Cc3ccccc3)ccc2O[C@@H]1CN(C)Cc1ccc(C(F)(F)F)cc1 propertyname=AC50 readoutvalue="11.8 µM (active)"
smilesrepresentation=C[C@H]1CN([C@@H](C)CO)C(=O)c2c(c3ccccc3n2C)-c2ccccc2CO[C@@H]1CN(C)S(=O)(=O)c1cccc(F)c1 propertyname=AC50 readoutvalue="11.6 µM (active)"
smilesrepresentation=CC(=O)O[C@H]1C[C@H](O[C@H]2[C@@H](O)C[C@H](O[C@H]3[C@@H](O)C[C@H](O[C@H]4CC[C@@]5(C)[C@H](CC[C@@H]6[C@@H]5CC[C@]5(C)[C@@H](C7=CC(=O)OC7)CC[C@]65O)C4)O[C@@H]3C)O[C@@H]2C)O[C@H](C)[C@H]1O[C@@H]1O[C@H](CO)[C@@H](O)[C@H](O)[C@H]1O propertyname=AC50 readoutvalue="0.345 µM (active)"
smilesrepresentation=CCN1CCN(Cc2ccc(NC(=O)c3cc(NC(=O)c4cncc(-c5ccc(C#N)cc5)c4)cc(OC)c3)cc2C(F)(F)F)CC1 propertyname=AC50 readoutvalue="7.76 µM (active)"
smilesrepresentation=C[C@H]1CCCCO[C@H](CN(C)S(=O)(=O)c2ccccc2)[C@@H](C)CN([C@@H](C)CO)C(=O)c2cc(NS(=O)(=O)c3ccc(Cl)cc3)ccc2O1 propertyname=AC50 readoutvalue="7.4 µM (active)"

----------
Lab note: AC50 readings collected with Cytochrome P450 1A2 (Homo sapiens, UniProt P05177) for the following molecules.
Sequence (P05177 whole entry): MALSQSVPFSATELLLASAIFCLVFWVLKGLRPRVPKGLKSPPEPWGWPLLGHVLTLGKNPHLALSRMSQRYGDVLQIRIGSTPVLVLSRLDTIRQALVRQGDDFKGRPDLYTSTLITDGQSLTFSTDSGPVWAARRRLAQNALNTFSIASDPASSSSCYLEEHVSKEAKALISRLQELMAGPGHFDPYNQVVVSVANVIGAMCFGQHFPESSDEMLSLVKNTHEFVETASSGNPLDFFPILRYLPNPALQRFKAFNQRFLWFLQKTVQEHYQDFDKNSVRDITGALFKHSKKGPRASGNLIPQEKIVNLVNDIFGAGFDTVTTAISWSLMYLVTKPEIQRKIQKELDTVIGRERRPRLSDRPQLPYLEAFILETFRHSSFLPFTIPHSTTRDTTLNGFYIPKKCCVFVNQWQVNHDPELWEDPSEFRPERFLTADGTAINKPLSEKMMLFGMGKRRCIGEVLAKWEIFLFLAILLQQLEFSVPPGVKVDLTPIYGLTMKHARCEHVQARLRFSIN
propertyName: AC50

molecule=Nc1nc(O)c(/N=N\c2ccccc2)c(C(=O)O)n1 readoutvalue="1.26 µM (inconclusive)"
molecule=Cc1ccc2c(c1)[C@@H]1CN(C)CC[C@@H]1N2S(=O)(=O)c1ccc(F)cc1 readoutvalue="17.8 µM (inconclusive)"
molecule=O=C(c1cccc(F)c1)N1CCC2(CC1)CCN(c1cccc(-c3ccccc3)c1)CC2 readoutvalue="20 µM (inconclusive)"
molecule=CCCCn1c(SCC(=O)Nc2nccs2)nc2ccccc2c1=O readoutvalue="0.2 µM (inconclusive)"
molecule="Cc1ccc2c(c1)N(CCC(=O)N1CCC3(CC1)OCCO3)C(=O)C(C)O2 (stereo not given)" readoutvalue="0.00631 µM (inconclusive)"
molecule=O=C(c1cc(C(F)(F)F)cc(C(F)(F)F)c1)N1CCC[C@@]2(CCN(Cc3nccs3)C2)C1 readoutvalue="20 µM (inconclusive)"
molecule="CC[C@H](Oc1ccc(Cl)cc1)C(=O)OC1C[C@H]2CC[C@@H](C1)N2C (stereo not given in full)" readoutvalue="31.6 µM (inconclusive)"
molecule=O[C@@H](COc1ccc(Cl)cc1Cl)CN1CCCC1 readoutvalue="5.01 µM (inconclusive)"
molecule=COc1cccc(Nc2ncc3nc(-c4ccc(F)cc4)c(=O)n(C)c3n2)c1 readoutvalue="3.16 µM (inconclusive)"
molecule=Cc1c(C2CCN(CCc3ccccc3)CC2)noc1-c1ccc(Cl)cc1 readoutvalue="25.1 µM (inconclusive)"

----------
# target: Large T antigen (Simian virus 40);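 also: Confirmatory-stage PubChem screen for compounds that inhibit SV40 T antigen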
# Sequence (P03070 whole entry): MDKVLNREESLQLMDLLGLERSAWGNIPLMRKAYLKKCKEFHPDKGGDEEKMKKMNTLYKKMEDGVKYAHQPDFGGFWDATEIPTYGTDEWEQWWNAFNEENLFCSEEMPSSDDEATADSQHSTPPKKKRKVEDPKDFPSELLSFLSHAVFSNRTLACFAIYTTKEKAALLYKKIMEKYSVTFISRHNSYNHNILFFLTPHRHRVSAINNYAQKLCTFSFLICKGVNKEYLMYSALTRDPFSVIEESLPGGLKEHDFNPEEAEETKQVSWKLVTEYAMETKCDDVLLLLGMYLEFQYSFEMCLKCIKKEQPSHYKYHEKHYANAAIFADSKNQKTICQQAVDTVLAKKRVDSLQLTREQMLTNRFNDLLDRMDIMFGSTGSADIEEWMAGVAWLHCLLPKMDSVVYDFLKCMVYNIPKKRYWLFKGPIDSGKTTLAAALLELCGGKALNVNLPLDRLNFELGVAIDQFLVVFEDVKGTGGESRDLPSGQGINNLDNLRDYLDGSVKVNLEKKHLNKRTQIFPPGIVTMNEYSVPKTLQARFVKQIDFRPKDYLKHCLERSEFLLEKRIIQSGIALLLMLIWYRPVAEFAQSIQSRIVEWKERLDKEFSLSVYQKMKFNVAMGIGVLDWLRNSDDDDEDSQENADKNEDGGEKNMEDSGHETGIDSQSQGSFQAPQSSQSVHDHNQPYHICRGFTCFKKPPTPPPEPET
# Type: functional, Betapolyomavirus macacae
Structures can show the parent of a compound that is named as a salt. The source made the active and inactive calls.
# Lookup of reported IC50 keyed by entry
propertyName: IC50

compound=COc1cccc(NC(S)=Nc2ccc(O)cc2)c1 target="Large T antigen (Simian virus 40)" readoutvalue="5.64 µM (active)"
compound=NC(=O)N/N=C/c1ccc(N2CCOCC2)s1 target="Large T antigen (Simian virus 40)" readoutvalue="13.8 µM (active)"
compound="CCCCC(CC)CNC(=N)NC(=N)NCCCCCCNC(=N)NC(=N)NCC(CC)CCCC (stereo not drawn) [ALEXIDINE HYDROCHLORIDE]" target="Large T antigen (Simian virus 40)" readoutvalue="29.1 µM (active)"
compound=COc1cc(/C=N/NC(=O)c2ccc(Cn3cc([N+](=O)[O-])cn3)o2)cc(Br)c1O target="Large T antigen (Simian virus 40)" readoutvalue="24 µM (active)"
compound=COc1ccccc1N1C(=O)NC(=O)/C(=C/c2ccc([N+](=O)[O-])s2)C1=O target="Large T antigen (Simian virus 40)" readoutvalue="> 100 µM (active)"
compound="O=C1CC(c2ccc(O)c(O)c2)Oc2c1ccc(O)c2O (stereo not drawn)" target="Large T antigen (Simian virus 40)" readoutvalue="1.91 µM (active)"
compound=O=C(O)/C=C/c1ccc(O)cc1 target="Large T antigen (Simian virus 40)" readoutvalue="18.9 µM (active)"
compound=Cc1ccc(N2NC(=O)/C(=C\c3cc4c(cc3[N+](=O)[O-])OCO4)C2=O)cc1C target="Large T antigen (Simian virus 40)" readoutvalue="23 µM (active)"

----------
# Lookup of reported EC50 keyed by entry
# target: Luciferin 4-monooxygenase (Photinus pyralis, UniProt P08659)
# Sequence (P08659 whole entry): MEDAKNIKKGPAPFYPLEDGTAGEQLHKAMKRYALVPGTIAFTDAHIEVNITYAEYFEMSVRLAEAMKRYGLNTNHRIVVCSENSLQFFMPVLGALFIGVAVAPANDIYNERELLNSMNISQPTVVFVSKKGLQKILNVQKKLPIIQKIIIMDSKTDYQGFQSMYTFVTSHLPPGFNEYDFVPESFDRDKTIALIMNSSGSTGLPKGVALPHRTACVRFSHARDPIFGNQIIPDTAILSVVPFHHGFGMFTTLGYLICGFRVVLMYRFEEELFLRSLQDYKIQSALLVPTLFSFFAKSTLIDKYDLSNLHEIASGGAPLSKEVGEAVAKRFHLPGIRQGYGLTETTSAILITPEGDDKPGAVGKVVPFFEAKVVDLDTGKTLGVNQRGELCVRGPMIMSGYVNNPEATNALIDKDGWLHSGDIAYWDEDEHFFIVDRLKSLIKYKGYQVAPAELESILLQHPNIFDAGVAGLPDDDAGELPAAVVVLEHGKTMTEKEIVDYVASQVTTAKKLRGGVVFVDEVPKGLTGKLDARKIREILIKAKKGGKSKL
# assayOverview: inhibition of purified Photinus pyralis luciferase – biochemical, luminescence, dose response (AID 1891)
Active and inactive are the calls of the source.
propertyName: EC50

smilesrepresentation=CCOc1ccc(/C=N/NC(=O)c2ccoc2C)cc1OC target="Luciferin 4-monooxygenase (Photinus pyralis, UniProt P08659)" readoutvalue="28.3 µM (active)"
smilesrepresentation=Cc1cccc(NC(S)=Nc2ccc3c[nH]nc3c2)c1 target="Luciferin 4-monooxygenase (Photinus pyralis, UniProt P08659)" readoutvalue="> 112 µM (not active)"
smilesrepresentation=O=C(N/C(=C/c1cccc(Br)c1)c1nc(S)n[nH]1)c1ccccc1 target="Luciferin 4-monooxygenase (Photinus pyralis, UniProt P08659)" readoutvalue="28.9 µM (active)"
smilesrepresentation=Nc1nc(Cl)nc2c1ncn2[C@@H]1O[C@H](CO)[C@@H](O)[C@H]1O target="Luciferin 4-monooxygenase (Photinus pyralis, UniProt P08659)" readoutvalue="> 112 µM (not active)"
smilesrepresentation=CCOc1ccc2[nH]c(NCCO)nc2c1 target="Luciferin 4-monooxygenase (Photinus pyralis, UniProt P08659)" readoutvalue="> 112 µM (not active)"
smilesrepresentation=CC(C)C(=O)Nc1ccc(NC(=S)NC(=O)c2ccccc2F)cc1 target="Luciferin 4-monooxygenase (Photinus pyralis, UniProt P08659)" readoutvalue="> 112 µM (not active)"
smilesrepresentation=S=C(Nc1ccccc1Cl)N(CCCN1CCOCC1)Cc1ccco1 target="Luciferin 4-monooxygenase (Photinus pyralis, UniProt P08659)" readoutvalue="> 112 µM (not active)"
